measuredOn: FP receptor in porcine tissue (retinal microvessels, uterine myometrium) (pig)
method: cell-based or functional assay
Non-standard residues stand in square brackets, D forms with d. No end group written: not given here.
measurementType: % Inhibition of Maximal Response, 100 µM peptide, 10^-7 M PGF2α, porcine eyecup (%)
Express it in %; write the number only.

{"binder": "[dI][dL]G[dW][dR][dD][dY][dK] [PCP-13.22]", "unitInfo": "%", "measuredValue": 83.4}
{"binder": "[dI][dL]G[dF][dR][dD][dY][dK] [PCP-13.11]", "unitInfo": "%", "measuredValue": 87}

Now take the following binder into account.
stdin: Which % Inhibition of Maximal Response, 100 µM peptide, 10^-7 M PGF2α, porcine eyecup value is on record for [dY][dQ][dD][dR][dF][dY][dL][dL] [PCP-14] ?
stdout: 64
